# experimental details: Equilibrium solubility of crystal forms by UV-Vis spectrophotometry (279 nm)
# Format: physicochemical
# measurement conditions: deionized water, pH 7, water, thermodynamic from solid, pH = 7.0 aqueous solution (deionized water); read-out: solubility
recorded endpoint: solubility

>  <structure notation>
Cn1c(=O)cc(N2CCC[C@@H](N)C2)n(Cc2cc(F)ccc2C#N)c1=O

>  <value measured>
13.2 mg/mL

$$$$

----------
# experimental details: Equilibrium solubility of crystal forms by UV-Vis spectrophotometry (279 nm)
# Assay type: physicochemical
# measurement conditions: pH = 7.4 PBS
Recorded solubility for the following molecules

>  <molecule>
Cn1c(=O)cc(N2CCC[C@@H](N)C2)n(Cc2cc(F)ccc2C#N)c1=O [TRE-II]

>  <solubility>
37.32 mg/mL

$$$$
>  <molecule>
Cn1c(=O)cc(N2CCC[C@@H](N)C2)n(Cc2cc(F)ccc2C#N)c1=O [TRE-IV]

>  <solubility>
35.94 mg/mL

$$$$
>  <molecule>
Cn1c(=O)cc(N2CCC[C@@H](N)C2)n(Cc2cc(F)ccc2C#N)c1=O [TRE-III]

>  <solubility>
28.26 mg/mL

$$$$
>  <molecule>
Cn1c(=O)cc(N2CCC[C@@H](N)C2)n(Cc2cc(F)ccc2C#N)c1=O [original crystal form, reference compound]

>  <solubility>
12.94 mg/mL

$$$$
>  <molecule>
Cn1c(=O)cc(N2CCC[C@@H](N)C2)n(Cc2cc(F)ccc2C#N)c1=O [TRE-V]

>  <solubility>
37.51 mg/mL

$$$$
